Item-by-item account of koff
assayTarget: T1, Human IFNAR1 SD1-SD4 (human, UniProt P17181 28-436, limits assumed)
T1 construct: domain: SD1-SD4; Antigen injected in the Biacore assay
T1 sequence (looked up): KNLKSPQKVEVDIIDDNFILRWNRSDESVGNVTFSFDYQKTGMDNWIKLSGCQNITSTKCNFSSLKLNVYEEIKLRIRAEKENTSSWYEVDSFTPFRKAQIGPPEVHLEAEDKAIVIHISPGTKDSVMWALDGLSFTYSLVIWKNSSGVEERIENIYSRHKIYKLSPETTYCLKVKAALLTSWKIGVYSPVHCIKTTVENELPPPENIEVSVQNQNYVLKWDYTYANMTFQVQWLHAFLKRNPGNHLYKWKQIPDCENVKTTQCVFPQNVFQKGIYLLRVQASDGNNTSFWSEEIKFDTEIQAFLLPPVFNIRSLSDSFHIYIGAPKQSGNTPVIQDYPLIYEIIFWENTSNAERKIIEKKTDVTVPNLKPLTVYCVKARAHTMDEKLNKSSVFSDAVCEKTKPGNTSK
assayName: SPR (Biacore 8K), antibody captured on anti-human IgG Fc, antigen injected
Please provide the amount together with its unit, number first.

Solved cases (5 shown):
>  <binder>
Hu4-16 (antibody, V domains shown, Humanized 7G4 variant) VH: QVQLVQSGAEVKKPGASVKVSCKASGYTFTSYWMNWVRQRPGQGLEWIGKIDPSDSETHFNQKFRDRVTLTVDKSTSTVYMELSSLRSEDTAVYYCARGGRISFDYDAALDYWGQGTLVTVSS VL: DIQMTQSPSSLSASVGDRVTITCKSSEVIYNRLAWYQQKPGNAPKLLISGATTLESGVPSRFSGSGSGKDYTLTISSLQPEDFATYYCQQYWNKPFTFGQGTKLEIK

>  <val>
0.00021 s⁻¹

$$$$
>  <binder>
Hu4-6 (antibody, V domains shown, Humanized 7G4 variant) VH: QVQLVQSGAEVKKPGASVKVSCKASGYTFTSYWMNWVRQAPGQGLEWMGKIDPSDSETHFNQKFRDRVTLTVDKSTSTVYMELSSLRSEDTAVYYCARGGRISFDYDAALDYWGQGTLVTVSS VL: DIQMTQSPSSLSASVGDRVTITCKSSEVIYNRLAWYQQKPGKAPKLLIYGATTLESGVPSRFSGSGSGKDYTLTISSLQPEDFATYYCQQYWNKPFTFGQGTKLEIK

>  <val>
0.000281 s⁻¹

$$$$
>  <binder>
Hu4-13 (antibody, V domains shown, Humanized 7G4 variant) VH: QVQLVQSGAEVKKPGASVKVSCKASGYTFTSYWMNWVRQAPGQGLEWMGKIDPSDSETHFNQKFRDRVTMTRDTSTSTVYMELSSLRSEDTAVYYCARGGRISFDYDAALDYWGQGTLVTVSS VL: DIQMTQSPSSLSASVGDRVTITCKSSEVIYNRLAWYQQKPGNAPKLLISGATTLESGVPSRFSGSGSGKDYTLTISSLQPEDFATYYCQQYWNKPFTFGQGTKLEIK

>  <val>
0.000301 s⁻¹

$$$$
>  <binder>
7G4 Chimeric (antibody, V domains shown) VH: QVQLQQPGAELVKPGAPVKLSCKASGYTFTSYWMNWVRQRPGRGLEWIGKIDPSDSETHFNQKFRDKATLTVDKSSTTAYIQLSSLTSEDSAVYYCARGGRISFDYDAALDYWGQGTSVTVSS VL: DILMTQSSSSFSVSLGDRVTITCKSSEVIYNRLAWFQQKPGNAPRLLISGATTLESGFPSRFSGSGSGKDYTLSITSLQIEDVSTYYCQQYWNKPFTFGSGTKLEVK

>  <val>
0.000349 s⁻¹

$$$$
>  <binder>
Hu4-15 (antibody, V domains shown, Humanized 7G4 variant) VH: QVQLVQSGAEVKKPGASVKVSCKASGYTFTSYWMNWVRQAPGQGLEWIGKIDPSDSETHFNQKFRDRVTLTVDKSTSTVYMELSSLRSEDTAVYYCARGGRISFDYDAALDYWGQGTLVTVSS VL: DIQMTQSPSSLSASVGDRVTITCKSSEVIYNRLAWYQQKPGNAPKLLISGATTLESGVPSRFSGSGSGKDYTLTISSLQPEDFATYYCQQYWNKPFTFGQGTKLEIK

>  <val>
0.000209 s⁻¹

$$$$

// moving on: another record for koff
Consider the binder Hu4-14 (antibody, V domains shown, Humanized 7G4 variant) VH: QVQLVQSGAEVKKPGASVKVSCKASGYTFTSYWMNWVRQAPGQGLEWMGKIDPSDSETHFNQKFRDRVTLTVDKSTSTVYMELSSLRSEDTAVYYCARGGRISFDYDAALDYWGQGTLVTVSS VL: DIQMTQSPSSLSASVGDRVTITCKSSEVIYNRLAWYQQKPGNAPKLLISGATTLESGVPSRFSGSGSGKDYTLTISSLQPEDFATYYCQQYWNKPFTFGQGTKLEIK and give its recorded koff.
0.000214 s⁻¹
